Target: CREB-binding protein/Histone acetyltransferase p300/Cellular tumor antigen p53 (Homo sapiens, UniProt P04637+Q09472+Q92793, Y220C)
Test: AceTAC activity at FLAG-tagged p53Y220C mutant (unknown origin) expressed in human NCI-H1299 cells expressing p300/CBP assessed as increase in p53 acetylation at lysine 382 residue incubated for 24 hrs by western blot analysis
Recorded metric: pEC50
# log scale: pEC50 equals minus log10 of the concentration in mol/L

| Sample smiles | pEC50 |
| --- | --- |
| CCn1c2ccc(CNCCOCCOCCOCCC(=O)NCCOc3ccc(CCc4nc5cc(-c6c(C)noc6C)ccc5n4CCN4CCOCC4)cc3F)cc2c2ccc(-c3cc(C)cs3)cc21 | 5.82 |

Let us move to another entry and its pEC50.
INPUT: Quick one: give measured pEC50 for CCn1c2ccc(CNCCOCCOCCOCCn3cc(COc4ccc(CCc5nc6cc(-c7c(C)noc7C)ccc6n5CCN5CCOCC5)cc4F)nn3)cc2c2ccc(-c3cc(C)cs3)cc21
OUTPUT: 5.73

====

Test: Cytotoxicity against human U2OS cells harboring wild type p53 assessed as inhibition of cell growth at 10 uM incubated for 72 hrs by WST-8 assay
Format: toxicity, cell-based
Reported inhibition at 72 h, 10 µM values for a set of compounds
A number alone suffices; assume %.

INPUT: Quick one: give measured inhibition at 72 h, 10 µM for CCn1c2ccc(CNC)cc2c2ccc(-c3cc(C)cs3)cc21
OUTPUT: 30

INPUT: Quick one: give measured inhibition at 72 h, 10 µM for CCn1c2ccc(CNCCOCCOCCOCCC(=O)NCCOc3ccc(CCc4nc5cc(-c6c(C)noc6C)ccc5n4CCN4CCOCC4)cc3F)cc2c2ccc(-c3cc(C)cs3)cc21
OUTPUT: 30

====

Tested on: CREB-binding protein/Histone acetyltransferase p300/Cellular tumor antigen p53 (Homo sapiens), P04637+Q09472+Q92793 [Y220C]
Assay: AceTAC activity at FLAG-tagged p53Y220C mutant (unknown origin ) expressed in human NCI-H1299 cells expressing p300/CBP assessed as increase in p53 acetylation at lysine 382 residue at 1 uM incubated for 24 hrs by western blot analysis
Assay type: cell-based
The source made the active and inactive calls. The rule behind the calls is not given here.
Recorded metric: Activity

Sample records with Activity:
| Sample smiles | Activity |
| --- | --- |
| CCn1c2ccc(CNCCCCCCCC(=O)NCCOc3ccc(CCc4nc5cc(-c6c(C)noc6C)ccc5n4CCN4CCOCC4)cc3F)cc2c2ccc(-c3cc(C)cs3)cc21 | Active |
| CCn1c2ccc(CNCCCCCCC(=O)NCCOc3ccc(CCc4nc5cc(-c6c(C)noc6C)ccc5n4CCN4CCOCC4)cc3F)cc2c2ccc(-c3cc(C)cs3)cc21 | Active |
| CCn1c2ccc(CNCCCC(=O)NCCOc3ccc(CCc4nc5cc(-c6c(C)noc6C)ccc5n4CCN4CCOCC4)cc3F)cc2c2ccc(-c3cc(C)cs3)cc21 | Active |
| CCn1c2ccc(CNCCCCCC(=O)NCCOc3ccc(CCc4nc5cc(-c6c(C)noc6C)ccc5n4CCN4CCOCC4)cc3F)cc2c2ccc(-c3cc(C)cs3)cc21 | Active |
| CCn1c2ccc(CNCCOCCOCCC(=O)NCCOc3ccc(CCc4nc5cc(-c6c(C)noc6C)ccc5n4CCN4CCOCC4)cc3F)cc2c2ccc(-c3cc(C)cs3)cc21 | Active |

INPUT: Quick one: give measured Activity for CCn1c2ccc(CNCCOCCOCCOCCOCCC(=O)NCCOc3ccc(CCc4nc5cc(-c6c(C)noc6C)ccc5n4CCN4CCOCC4)cc3F)cc2c2ccc(-c3cc(C)cs3)cc21
OUTPUT: Active

INPUT: Quick one: give measured Activity for CCn1c2ccc(CNCCOCCOCCOCCOCCOCCC(=O)NCCOc3ccc(CCc4nc5cc(-c6c(C)noc6C)ccc5n4CCN4CCOCC4)cc3F)cc2c2ccc(-c3cc(C)cs3)cc21
OUTPUT: Active

====

Assay: Plasma concentration in Swiss albino mouse at 50 mg/kg, ip measured after 8 hrs by LC-MS/MS analysis
Assay type: ADME, organism-based
Recorded metric: concentration at 8 h

INPUT: Quick one: give measured concentration at 8 h for CCn1c2ccc(CNCCOCCOCCOCCC(=O)NCCOc3ccc(CCc4nc5cc(-c6c(C)noc6C)ccc5n4CCN4CCOCC4)cc3F)cc2c2ccc(-c3cc(C)cs3)cc21
OUTPUT: > 400 nM

====

Tested on: CREB-binding protein/Histone acetyltransferase p300/Cellular tumor antigen p53 (Homo sapiens), P04637+Q09472+Q92793 [Y220C]
Assay: AceTAC activity at FLAG-tagged p53Y220C mutant (unknown origin) expressed in human NCI-H1299 cells expressing p300/CBP assessed as increase in p53 acetylation at lysine 382 residue at 10 uM incubated for 24 hrs by western blot analysis relative to control
Type: cell-based
Recorded metric: Activity (%)
A number alone suffices; assume %.

| Sample smiles | Activity (%) |
| --- | --- |
| CCn1c2ccc(CNCCOCCOCCC(=O)NCCOc3ccc(CCc4nc5cc(-c6c(C)noc6C)ccc5n4CCN4CCOCC4)cc3F)cc2c2ccc(-c3cc(C)cs3)cc21 | 205 |
| CCn1c2ccc(CNCCCCCCCCC(=O)NCCOc3ccc(CCc4nc5cc(-c6c(C)noc6C)ccc5n4CCN4CCOCC4)cc3F)cc2c2ccc(-c3cc(C)cs3)cc21 | 103 |

Let us move to another entry and its Activity.
INPUT: Quick one: give measured Activity for CCn1c2ccc(CNCCC(=O)NCCOc3ccc(CCc4nc5cc(-c6c(C)noc6C)ccc5n4CCN4CCOCC4)cc3F)cc2c2ccc(-c3cc(C)cs3)cc21
OUTPUT: 70

====

System: U2OS
Assay: Cytotoxicity against human U2OS cells harboring wild type p53 assessed as inhibition of cell growth incubated for 72 hrs by WST-8 assay
Format: toxicity, cell-based
Recorded metric: GI50

| Sample smiles | Recorded metric | Endpoint value |
| --- | --- | --- |
| CCn1c2ccc(CNC)cc2c2ccc(-c3cc(C)cs3)cc21 | GI50 | > 10 µM |

INPUT: Quick one: give measured GI50 for CCn1c2ccc(CNCCOCCOCCOCCC(=O)NCCOc3ccc(CCc4nc5cc(-c6c(C)noc6C)ccc5n4CCN4CCOCC4)cc3F)cc2c2ccc(-c3cc(C)cs3)cc21
OUTPUT: > 10 µM

====

Reported GI50 values for a set of compounds
Test system: PNT2
Test: Cytotoxicity against human PNT2 cells assessed as inhibition of cell growth incubated for 72 hrs by WST-8 assay
Assay type: toxicity, cell-based
Details: pnt2, 72 h

| Sample smiles | GI50 |
| --- | --- |
| CCn1c2ccc(CNCCOCCOCCOCCC(=O)NCCOc3ccc(CCc4nc5cc(-c6c(C)noc6C)ccc5n4CCN4CCOCC4)cc3F)cc2c2ccc(-c3cc(C)cs3)cc21 | > 10 µM |

Let us move to another entry and its GI50.
INPUT: Quick one: give measured GI50 for CCn1c2ccc(CNC)cc2c2ccc(-c3cc(C)cs3)cc21
OUTPUT: > 10 µM

====

Assay: Cytotoxicity against human PNT2 cells assessed as inhibition of cell growth at 10 uM incubated for 72 hrs by WST-8 assay
Assay type: toxicity, cell-based
Recorded metric: inhibition at 72 h, 10 µM

| Sample smiles | inhibition at 72 h, 10 µM |
| --- | --- |
| CCn1c2ccc(CNC)cc2c2ccc(-c3cc(C)cs3)cc21 | ~30% |

Let us move to another entry and its inhibition at 72 h, 10 µM.
INPUT: Quick one: give measured inhibition at 72 h, 10 µM for CCn1c2ccc(CNCCOCCOCCOCCC(=O)NCCOc3ccc(CCc4nc5cc(-c6c(C)noc6C)ccc5n4CCN4CCOCC4)cc3F)cc2c2ccc(-c3cc(C)cs3)cc21
OUTPUT: ~30%

====

Reported Activity values for a set of compounds
System: CREB-binding protein/Histone acetyltransferase p300/Cellular tumor antigen p53 (Homo sapiens), P04637+Q09472+Q92793 [Y220C]
Test: AceTAC activity at FLAG-tagged p53Y220C mutant (unknown origin) expressed in human NCI-H1299 cells expressing p300/CBP assessed as increase in p53 acetylation at lysine 382 residue at 10 uM incubated for 24 hrs by western blot analysis relative to control
Format: cell-based
A number alone suffices; assume %.

| Sample smiles | Activity [%] |
| --- | --- |
| CCn1c2ccc(CNCC(=O)NCCOc3ccc(CCc4nc5cc(-c6c(C)noc6C)ccc5n4CCN4CCOCC4)cc3F)cc2c2ccc(-c3cc(C)cs3)cc21 | 60 |

INPUT: Quick one: give measured Activity for CCn1c2ccc(CNCCOCCOCCOCCC(=O)NCCOc3ccc(CCc4nc5cc(-c6c(C)noc6C)ccc5n4CCN4CCOCC4)cc3F)cc2c2ccc(-c3cc(C)cs3)cc21
OUTPUT: 235

INPUT: Quick one: give measured Activity for CCn1c2ccc(CNCCCCCCC(=O)NCCOc3ccc(CCc4nc5cc(-c6c(C)noc6C)ccc5n4CCN4CCOCC4)cc3F)cc2c2ccc(-c3cc(C)cs3)cc21
OUTPUT: 219
